Source of measurements: ChEMBL document CHEMBL2401698

# TEST_SYSTEM: Adenosine receptor A1 (Mus musculus, UniProt Q60612)
# Sequence (Q60612 whole entry): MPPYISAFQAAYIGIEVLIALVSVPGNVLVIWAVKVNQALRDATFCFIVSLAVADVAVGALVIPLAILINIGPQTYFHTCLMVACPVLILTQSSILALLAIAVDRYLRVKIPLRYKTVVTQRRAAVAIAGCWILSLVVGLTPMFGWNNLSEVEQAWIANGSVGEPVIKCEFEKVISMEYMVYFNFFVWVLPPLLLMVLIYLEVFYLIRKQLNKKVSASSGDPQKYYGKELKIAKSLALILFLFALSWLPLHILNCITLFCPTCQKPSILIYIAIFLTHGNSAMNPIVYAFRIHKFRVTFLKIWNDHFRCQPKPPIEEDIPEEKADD
# EXPERIMENTAL_PROTOCOL: Agonist activity at mouse adenosine A1 receptor expressed in HEK293 cell membranes assessed as inhibition of forskolin-stimulated cAMP production preincubated for 30 mins prior to forskolin-treatment measured after 15 mins by ELISA
# Format: functional, cell-based
pEC50: −log10 of the molar value.
READOUT_LABEL: pEC50

| QUERY_SMILES | READOUT_LABEL | ASSAY_VALUE |
| --- | --- | --- |
| OC[C@H]1O[C@@H](n2cnc3c(NC4CCCC4)nc(Cl)nc32)[C@H](O)[C@@H]1O | pEC50 | 7.75 |

----------
# TEST_SYSTEM: Adenosine receptor A3 (Homo sapiens) (UniProt P0DMS8)
# Sequence (P0DMS8 whole entry): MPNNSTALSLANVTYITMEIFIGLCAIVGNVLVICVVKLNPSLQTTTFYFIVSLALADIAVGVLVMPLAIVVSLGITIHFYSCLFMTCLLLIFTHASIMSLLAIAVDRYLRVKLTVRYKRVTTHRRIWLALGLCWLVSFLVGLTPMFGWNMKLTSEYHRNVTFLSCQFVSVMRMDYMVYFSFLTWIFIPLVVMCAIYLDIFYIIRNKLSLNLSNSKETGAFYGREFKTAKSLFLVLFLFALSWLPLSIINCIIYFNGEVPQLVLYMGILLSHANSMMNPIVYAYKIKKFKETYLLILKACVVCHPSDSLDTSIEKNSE
# EXPERIMENTAL_PROTOCOL: Activity at human adenosine A3 receptor expressed in CHO cell membranes assessed as inhibition of forskolin-stimulated cAMP production at 10 uM preincubated for 30 mins prior to forskolin-treatment measured after 15 mins by ELISA relative to 5'-N-ethylcarboxamidoadenosine
# Type: functional, cell-based
READOUT_LABEL: Efficacy (%)

| QUERY_SMILES | QUANTITY_UNIT | ASSAY_VALUE |
| --- | --- | --- |
| CNC(=O)[C@@]12C[C@@H]1[C@@H](n1cnc3c(NCc4cccc(Cl)c4)nc(C#Cc4cccc(S(=O)(=O)O)c4)nc31)[C@H](O)[C@@H]2O | % | 98.2 |
| CNC(=O)[C@@]12C[C@@H]1[C@@H](n1cnc3c(NCCc4ccc(S(=O)(=O)O)cc4)nc(C#Cc4ccccc4)nc31)[C@H](O)[C@@H]2O | % | 93.8 |
| CNC(=O)[C@@]12C[C@@H]1[C@@H](n1cnc3c(NCc4cccc(Cl)c4)nc(C#Cc4ccc(S(=O)(=O)O)cc4)nc31)[C@H](O)[C@@H]2O | % | 96.8 |
| CNC(=O)[C@@]12C[C@@H]1[C@@H](n1cnc3c(NCCc4ccccc4)nc(C#Cc4ccccc4)nc31)[C@H](O)[C@@H]2O | % | 105 |
| O=S(=O)(O)c1ccc(CCNc2nc(C#Cc3ccccc3)nc3c2ncn3[C@H]2[C@H](O)[C@H](O)[C@@H]3C[C@@H]32)cc1 | % | 7.2 |

----------
# TEST_SYSTEM: Adenosine receptor A2a (Mus musculus)
# EXPERIMENTAL_PROTOCOL: Displacement of [3H]2-[p-(2-carboxyethyl)phenylethylamino]-5'-N-ethylcarboxamidoadenosine from mouse adenosine A2A receptor expressed in HEK293 cell membranes at 10 uM after 60 mins by liquid scintillation counting analysis relative to control
Let's look at some compounds and their measured inhibition.
READOUT_LABEL: inhibition (%)

| QUERY_SMILES | READOUT_LABEL | ASSAY_VALUE |
| --- | --- | --- |
| CNC(=O)[C@@]12C[C@@H]1[C@@H](n1cnc3c(NCCc4ccc(S(=O)(=O)O)cc4)nc(C#Cc4ccccc4)nc31)[C@H](O)[C@@H]2O | inhibition | 0 |
| O[C@@H]1[C@H](O)[C@@H]2C[C@@H]2[C@H]1n1cnc2c(NCc3cccc(Cl)c3)nc(C#Cc3ccc(-c4ccccc4)cc3)nc21 | inhibition | 0 |
| CCNc1nc(C#Cc2ccccc2)nc2c1ncn2[C@H]1[C@H](O)[C@H](O)[C@@H]2C[C@@H]21 | inhibition | 49 |
